molecular target: RAC-alpha serine/threonine-protein kinase (Homo sapiens, UniProt P31749)
Sequence (P31749 whole entry): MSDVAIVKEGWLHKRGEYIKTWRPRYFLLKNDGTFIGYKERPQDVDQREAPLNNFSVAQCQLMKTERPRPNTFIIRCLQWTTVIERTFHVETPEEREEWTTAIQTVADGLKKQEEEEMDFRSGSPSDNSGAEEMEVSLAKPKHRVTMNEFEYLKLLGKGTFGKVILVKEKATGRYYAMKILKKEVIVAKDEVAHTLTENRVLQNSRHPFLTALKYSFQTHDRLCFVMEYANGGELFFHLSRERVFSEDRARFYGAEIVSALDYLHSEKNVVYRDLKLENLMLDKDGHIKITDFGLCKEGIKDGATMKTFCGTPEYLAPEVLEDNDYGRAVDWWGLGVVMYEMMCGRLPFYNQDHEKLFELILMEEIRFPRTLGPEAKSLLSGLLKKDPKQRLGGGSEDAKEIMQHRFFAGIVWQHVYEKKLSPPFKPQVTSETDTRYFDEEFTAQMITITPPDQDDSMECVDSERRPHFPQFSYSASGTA
*1 amine or outer side, *2 acyl side, *3 side chain or, on linkers, in order; H or OH if unused. Where a SMILES comes first, the peptide text is derived from it. Bridges are numbered along the chain shown (N, C = ends). [ ]: non-standard residue; d: D form. N(6-aminohexyl)Gly = O=C(CN(CCCCCCN[*:3])[*:1])[*:2]; NGly(3-aminopropyl) = O=C(CN(CCCN[*:3])[*:1])[*:2]; N(2-Aminoethyl)Gly = O=C(CN(CCN[*:3])[*:1])[*:2]; Gly(N-2-aminoethyl) = NCCNCC(=O)O; Gly(N(CH2)3NH2) = NCCCNCC(=O)O; hLeu = CC(C)CC[C@H](N)C(=O)O; Nva = CCC[C@H](N)C(=O)O; Dap = NC[C@H](N)C(=O)O; CO = O=C([*:1])[*:2]; Nlys = NCCCCNCC(=O)O
// classify: if (IC50 < 300 nM) True else False

MOLECULE	GROUP_LABEL
CCC[C@@H]1NC(=O)[C@H](CCCNC(=N)N)NC(=O)CN(C(=O)[C@@H](N)CCCNC(=N)N)CCNC(=O)NCCCN(CC(N)=O)C(=O)[C@H](CCC(C)C)NC(=O)[C@H](CN)NC(=O)[C@H](Cc2ccc(O)cc2)NC1=O (H-R[N(2-Aminoethyl)Gly]R[Nva]Y[Dap][hLeu][NGly(3-aminopropyl)]-NH2; linker 2-8 via CO)	False
CCC[C@H](NC(=O)[C@H](CCCN=C(N)N)NC(=O)CN(CCCN)C(=O)[C@@H](N)CCCN=C(N)N)C(=O)N[C@@H](Cc1ccc(O)cc1)C(=O)N[C@@H](CN)C(=O)N[C@@H](CCC(C)C)C(=O)N(CCN)CC(N)=O (H-R[Gly(N(CH2)3NH2)]R[Nva]Y[Dap][hLeu][Gly(N-2-aminoethyl)]-NH2)	False

INPUT: Lab log: compare recorded IC50 with 300 nM; is it strictly lower for CCC[C@H](NC(=O)[C@H](CCCNC(=N)N)NC(=O)CN(CCCCN)C(=O)[C@@H](N)CCCNC(=N)N)C(=O)N[C@@H](Cc1ccc(O)cc1)C(=O)N[C@@H](CN)C(=O)N[C@@H](CCC(C)C)C(=O)N(CCCN)CC(N)=O (H-R[Nlys]R[Nva]Y[Dap][hLeu][Gly(N(CH2)3NH2)]-NH2) ?
OUTPUT: True

INPUT: Lab log: compare recorded IC50 with 300 nM; is it strictly lower for CCC[C@@H]1NC(=O)[C@H](CCCN=C(N)N)NC(=O)CN(C(=O)[C@@H](N)CCCN=C(N)N)CCCCCCNC(=O)NCCCCN(CC(N)=O)C(=O)[C@H](CCC(C)C)NC(=O)[C@H](CN)NC(=O)[C@H](Cc2ccc(O)cc2)NC1=O (H-R[N(6-aminohexyl)Gly]R[Nva]Y[Dap][hLeu][Nlys]-NH2; linker 2-8 via CO) ?
OUTPUT: True

###

biological target: RAC-alpha serine/threonine-protein kinase (Homo sapiens); assay: Inhibition of Akt using RPRTSSF peptide and [gamma32]ATP at 0.625 uM by cell-free radioactive assay relative to control
Where a SMILES comes first, the peptide text is derived from it. [ ]: non-standard residue; d: D form. Gly(N-(CH2)6NH2) = NCCCCCCNCC(=O)O; Gly(N(CH2)3NH2) = NCCCNCC(=O)O; hLeu = CC(C)CC[C@H](N)C(=O)O; Nva = CCC[C@H](N)C(=O)O; Dap = NC[C@H](N)C(=O)O
Below is a list of entries, each paired with its recorded inhibition value.
Entry rule: numbers only, all in %.

MOLECULE	MEASUREMENT_TARGET	UNIT_STRING	inhibition
CCC[C@H](NC(=O)[C@H](CCCNC(=N)N)NC(=O)CN(CCCCCCN)C(=O)[C@@H](N)CCCNC(=N)N)C(=O)N[C@@H](Cc1ccc(O)cc1)C(=O)N[C@@H](CN)C(=O)N[C@@H](CCC(C)C)C(=O)N(CCCN)CC(N)=O (H-R[Gly(N-(CH2)6NH2)]R[Nva]Y[Dap][hLeu][Gly(N(CH2)3NH2)]-NH2)	RAC-alpha serine/threonine-protein kinase (Homo sapiens)	%	87

Next molecule, inhibition to be filled in.
# inhibition of CCC[C@H](NC(=O)[C@H](CCCNC(=N)N)NC(=O)CN(CCCN)C(=O)[C@@H](N)CCCNC(=N)N)C(=O)N[C@@H](Cc1ccc(O)cc1)C(=O)N[C@@H](CN)C(=O)N[C@@H](CCC(C)C)C(=O)N(CCCN)CC(N)=O (H-R[Gly(N(CH2)3NH2)]R[Nva]Y[Dap][hLeu][Gly(N(CH2)3NH2)]-NH2) = 90
